// provenance: a melting point compilation (Tetko et al.; mined from patent text by program, amines drawn as free bases though some values may be those of a salt)

Listing of entries alongside the reported melting point.
measurementName: melting point

{"columns": ["compound", "measurementName", "valueObserved"],
 "data": [
  ["O=C(OC1COC(OC(=O)C2CCCCC2)CO1)C1CCCCC1 (stereo not given)", "melting point", "156 to 158 °C"],
  ["CCNC(=S)NS(=O)(=O)c1cc(CCNC(=O)c2cc(Cl)ccc2OC)ccc1-c1ccccc1", "melting point", "168 to 170 °C"],
  ["O=C(N[C@H]1CN(C(=O)N2CCC[C@H]2C(=O)O)C1=O)c1ccccc1", "melting point", "148 to 151 °C"],
  ["CCOC(=O)c1ccc(OCc2ccc(F)cc2)cc1", "melting point", "60 to 62 °C"],
  ["Cc1oc2cc(N)ccc2c(=O)c1C", "melting point", "224 to 226 °C"],
  ["Nn1cc(C(=O)NCc2ccc(Cl)cc2)c(=O)c2cc(CCCO)ccc21", "melting point", "187 to 188 °C"],
  ["COc1ccc(C2Sc3ccc(OC)cc3N(CCN(C)C)C(=O)C2O)cc1 (stereo not given)", "melting point", "127 to 129 °C"],
  ["C#Cc1cc2c(Nc3ccc4[nH]ccc4c3)ncnc2cc1OC", "melting point", "176 °C"],
  ["Cc1csc(C)c1N(Cn1cccn1)C(=O)CCl", "melting point", "88 to 89 °C"],
  ["O=C(Nc1ccc(N2CCOCC2=O)cc1)[C@H]1C[C@@H](O)CN1C(=O)Cc1ccc(Cl)cc1", "melting point", "141 °C"]
]}

====

Consider the following compounds and their measured melting point readings.

{"columns": ["compound", "melting point"],
 "data": [
  ["CS(=O)(=O)c1ccc(-c2cc(Cl)ccc2OCC(=O)O)cc1Cl", "140 to 142 °C"],
  ["COc1cc2c(cc1OC)CCCC(C(=O)N1CCN(Cc3cc(OC)c(OC)c(OC)c3)CC1CCCO)=C2 (stereo unspecified)", "144 to 145 °C"],
  ["CN(C(=O)C(C)(C)C)C1(c2ccccc2)CCNCC1", "125 °C"],
  ["O=C(c1ccc(O)cc1)c1cc(Cl)cc(Cl)c1", "183 °C"],
  ["CCSCCn1c(=N)sc2cc(OC(F)(F)C(F)(F)F)ccc21", "< 50 °C"],
  ["O=C(Cc1cccc2ccccc12)Nc1cc([C@H]2C[C@@H](NC(=O)c3cccc(C(F)(F)F)c3)C2)[nH]n1", "143 °C"],
  ["CNS(=O)(=O)c1cscc1CCl", "75 to 76 °C"],
  ["CCC(C)Nc1c(-c2ccc(OC)cc2Cl)c(Cl)nc2ncnn12 (stereo unspecified)", "116 °C"],
  ["Cn1cc(C(=O)O)cc1C(=O)OC(c1ccc2c(c1)OCO2)c1ccc2c(c1)OCO2", "103 to 110 °C"],
  ["CC1=C(c2ccncc2)SC(c2ccco2)C(=O)N1 (stereo unspecified)", "178 to 180 °C"],
  ["Cc1c2[nH]c(C(=O)O)cc(=O)c2cc2c(=O)cc(C(=O)O)[nH]c12", "> 310 °C"],
  ["Nc1ncc(Sc2ncccc2O)s1", "128 to 130 °C"],
  ["Cc1c(-c2cncn2C)[nH]c(=O)c2c1ccc1nc(Nc3c(Cl)cccc3Cl)n(C)c12", "> 300 °C"],
  ["Cc1ccc2cccc(OCc3c(Cl)ccc(S(=O)(=O)N(C)Cc4cccc(C(=O)O)c4)c3Cl)c2n1", "204 °C"],
  ["CCCOc1cc(OC)cc(O)c1C(=O)C=Cc1ccc(OC)cc1", "117 °C"],
  ["COC(=O)c1ccc2c(c1)SCCC2O (stereo unspecified)", "79 to 81 °C"],
  ["Nc1c(SC(F)(F)F)nc(Br)n1-c1c(Cl)cc(C(F)(F)F)cc1Cl", "154 °C"],
  ["COc1ccc(C(=NO)c2ccc(OC)cc2)cc1", "131 to 132 °C"],
  ["CCc1nc2c(N)nc3ccccc3c2n1CC1(O)CCS(=O)(=O)CC1", "> 250 °C"],
  ["Cc1ccc(S(=O)(=O)N(C)c2ccc(Cl)cc2N=O)cc1", "113 to 114 °C"],
  ["CCOP(=O)(/C=C/c1cn(CCO)nc1OCc1ccc(OCc2nc(-c3ccco3)oc2C)c(OC)c1)OCC", "95 to 96 °C"]
]}
